# subject_of_test: purified AChE from S. avenae (Sitobion avenae, UniProt Q66S75)
# Sequence (Q66S75 23-664): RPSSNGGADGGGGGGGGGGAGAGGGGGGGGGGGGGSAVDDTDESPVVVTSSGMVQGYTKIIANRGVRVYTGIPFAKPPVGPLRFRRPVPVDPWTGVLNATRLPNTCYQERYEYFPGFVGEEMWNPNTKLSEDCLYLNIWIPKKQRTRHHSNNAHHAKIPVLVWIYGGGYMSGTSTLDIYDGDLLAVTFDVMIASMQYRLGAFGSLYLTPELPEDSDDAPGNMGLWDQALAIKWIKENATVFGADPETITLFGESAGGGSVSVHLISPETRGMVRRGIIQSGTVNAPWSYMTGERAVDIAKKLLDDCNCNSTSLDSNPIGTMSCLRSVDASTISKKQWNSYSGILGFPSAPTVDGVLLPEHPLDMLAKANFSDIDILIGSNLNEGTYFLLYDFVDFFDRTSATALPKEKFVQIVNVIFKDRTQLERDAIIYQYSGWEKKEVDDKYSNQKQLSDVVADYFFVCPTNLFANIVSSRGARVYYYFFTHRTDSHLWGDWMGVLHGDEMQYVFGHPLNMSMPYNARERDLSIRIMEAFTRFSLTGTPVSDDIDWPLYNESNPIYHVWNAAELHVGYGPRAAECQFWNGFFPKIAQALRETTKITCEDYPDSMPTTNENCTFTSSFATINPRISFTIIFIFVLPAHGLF
# experiment_description: Substrate specificity and kinetic analysis of purified AChE from S. avenae
# Assay type: biochemical
# protocol_conditions: compound as substrate, 30°C
Consider the following compounds; for each one, report its Vmax ± SE.
Give bare numbers, in nmol/min/mg protein.

The examples below pair each entry with its known result.
1. CC(=O)SC(C)C[N+](C)(C)C (stereo not shown)	118.32
2. CC(=O)SCC[N+](C)(C)C.[I-] [ATCh, Acetylthiocholine iodide]	152.75
3. CCC(=O)SCC[N+](C)(C)C.[I-] [PrTCh, propionylthiocholine iodide]	94.01

Lab note: next compound to report on.
-- ask Look up Vmax ± SE: CCCC(=O)SCC[N+](C)(C)C.[I-] [BuTCh, butyrylthiocholine iodide]
-- reply 9.09

The values you see were collected from paper PMC3735166.
